STUDY_TARGET: ETS1 (UniProt P14921)
Sequence: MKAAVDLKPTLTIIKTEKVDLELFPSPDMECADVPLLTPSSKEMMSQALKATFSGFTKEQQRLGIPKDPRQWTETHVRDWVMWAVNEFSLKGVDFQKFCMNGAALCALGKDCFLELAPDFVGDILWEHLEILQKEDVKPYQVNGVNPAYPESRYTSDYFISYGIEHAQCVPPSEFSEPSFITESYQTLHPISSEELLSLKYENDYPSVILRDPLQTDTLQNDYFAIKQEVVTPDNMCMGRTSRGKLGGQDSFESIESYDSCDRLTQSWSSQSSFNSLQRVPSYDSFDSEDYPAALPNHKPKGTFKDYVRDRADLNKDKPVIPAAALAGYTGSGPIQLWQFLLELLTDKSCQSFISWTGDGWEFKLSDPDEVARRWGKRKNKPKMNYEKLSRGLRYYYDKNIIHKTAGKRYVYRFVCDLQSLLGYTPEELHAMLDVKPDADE
ASSAY_SUMMARY: ETS1 binding intensity (PBM fluorescence) in presence of RUNX1, normalised to ETS1-only experiment (arbitrary fluorescence units); higher = stronger binding
TEST_SETTINGS: ETS1 concentration 1 nM; RUNX1 concentration 25 nM

- SEQUENCE_STRING: "TTGGTGACCTCTTCCTGTCCGCTGTGGTGTTGTTAC"
  STUDY_TARGET: "ETS1 (UniProt P14921)"
  ETS1 binding intensity: 1240
- SEQUENCE_STRING: "AAAGTAGGTCCGGTCCGCGGGTGCGGTCGGGCATGC"
  STUDY_TARGET: "ETS1 (UniProt P14921)"
  ETS1 binding intensity: 545
- SEQUENCE_STRING: "GAGCACAGGAAAAGCTGGTGCCAACCACAAGTGCTT"
  STUDY_TARGET: "ETS1 (UniProt P14921)"
  ETS1 binding intensity: 1130
- SEQUENCE_STRING: "GGCAAACAGGAAACACTCCCAGGGCTGTGGGCTCCT"
  STUDY_TARGET: "ETS1 (UniProt P14921)"
  ETS1 binding intensity: 1790
